- Tested on: OVCAR-4 ovarian
- Method description: NCI-60 one-dose screen, 48 h (100 = growth as untreated, 0 = no growth, -100 = all killed)
- Condition set: 10 µM unless noted
About 83,000 compounds went through this panel and 20% of them were active in at least one assay; those are over-represented in the sample as a whole. The source made the active and inactive calls. How the source made its calls: active means growth percent below 10; inactive means the rest.
What growth was measured for each of the following?

Sure, the documented growth for COc1ccc(CN2CCCC(C(=O)c3ccc(C(F)(F)F)cc3)C2)c(O)c1 (stereo not given) is 45.4% (inactive)

Sure, the documented growth for CCCN1CCN(c2ccc3nc(-c4ccc5nc(-c6cc(OC)ccc6OC)[nH]c5c4)[nH]c3c2)CC1 is 81.1% (inactive)

Sure, the documented growth for O=C(Nc1ccc(I)cc1F)c1cc(Cl)ccc1O is 15% (inactive)

Sure, the documented growth for O=Cc1cc2ccccc2nc1Nc1nccs1 is 75.8% (inactive)

Sure, the documented growth for COc1cc(NC(=O)CCSc2nc3ccccc3c(=O)n2Cc2ccccc2)cc(OC)c1OC is 63.4% (inactive)

Sure, the documented growth for Cc1cc(Br)c(N)c(Br)c1 is 94.9% (inactive)

Sure, the documented growth for Nc1ccc(-n2c(=O)oc3ccc(Cl)cc3c2=O)c(Cl)c1 is 18.2% (inactive)

Sure, the documented growth for CC(C)[C@H](NC(=O)Cn1cc(C(=O)O)nn1)C(=O)O is 104% (inactive)

Sure, the documented growth for O=C1/C=C/[C@@H](O)[C@@H]2C[C@@H](O)C[C@H]2/C=C/CCCCO1 is 20.9% (inactive)

Sure, the documented growth for CCOC(=O)c1c(C=O)nc2ccccc2c1/C=C/c1ccc(Cl)cc1 is 85.6% (inactive)
